Tested on: Myzus persicae
Experiment: Myzus persicae - spray test
Assay type: in vivo
Settings: application rate 500 g/ha; all stages of green peach aphid on Chinese cabbage leaf discs; after 5-6 days
Value kind: efficacy

[[record]]
compound = "CCS(=O)(=O)c1ccc(NC(C)=O)nc1-c1nc2cc(C(F)(F)F)cnc2n1C"
result = "90%"

[[record]]
compound = "CCS(=O)(=O)c1ccc(N)nc1-c1nc2cc(C(F)(F)F)cnc2n1C"
result = "90%"

[[record]]
compound = "CCS(=O)(=O)c1ccc(NC(=O)C2CC2)nc1-c1nc2cc(C(F)(F)F)cnc2n1C"
result = "100%"

[[record]]
compound = "CCS(=O)(=O)c1ccc(NC(=O)C(C)CSC)nc1-c1nc2cc(C(F)(F)F)cnc2n1C (stereo not shown)"
result = "90%"


====

Property: chromatographic logP; scope: individual compounds
Assay: log P (neutral), HPLC on reversed-phase column (C 18), LC-MS neutral range
Type: physicochemical
Conditions: reversed-phase HPLC column (C 18), pH 7.8, HPLC reversed-phase C 18, 55° C., pH 7.8, ammonium hydrogencarbonate/acetonitrile
Value kind: chromatographic logP

[[record]]
compound = "CCS(=O)(=O)c1ccc(-n2cc(Cl)cn2)nc1-c1nc2cc(C(F)(F)F)nnc2n1C [Example I-35]"
result = 3.38

[[record]]
compound = "CCS(=O)(=O)c1ccc(-n2cc(C(F)(F)F)cn2)nc1-c1nc2cc(C(F)(F)F)cnc2n1C [Example I-4]"
result = 4.04

[[record]]
compound = "CCSc1ccc(Cl)nc1-c1nc2cc(C(F)(F)F)nnc2n1C [XI-6]"
result = 3.28

[[record]]
compound = "Cn1c(-c2nc(Cl)ccc2Cl)nc2cc3c(cc21)OC(F)(F)O3 [IX-3]"
result = 3.22

[[record]]
compound = "CCS(=O)(=O)c1ccc(S(=O)(=O)CC)c(-c2cn3cc(C(F)(F)F)ncc3n2)n1 [LXXIII-2]"
result = 2.23

[[record]]
compound = "CCS(=O)(=O)c1ccc(C(=O)OC)nc1-c1nc2cc(C(F)(F)F)cnc2n1C [LXXX-1]"
result = 2.61

[[record]]
compound = "CCSc1ccc(SCC)c(-c2cn3cc(C(F)(F)F)ncc3n2)n1 [LXXI-1]"
result = 4

[[record]]
compound = "CCS(=O)(=O)c1ccc(NC(C)=O)nc1-c1nc2cc(C(F)(F)F)ccc2n1C [Example I-2]"
result = 2.5

[[record]]
compound = "CCS(=O)(=O)c1ccc(N)nc1-c1nc2cc(C(F)(F)F)ccc2n1C [Example I-3]"
result = 2.18

[[record]]
compound = "CC(=O)c1nc(F)ccc1F [1-(3,6-Difluoropyridin-2-yl)ethanone]"
result = 1.24

[[record]]
compound = "CCS(=O)(=O)c1ccc(-n2cc(Cl)cn2)nc1-c1cn2cc(C(F)(F)F)ncc2n1 [Example I-18]"
result = 3.44

[[record]]
compound = "CCS(=O)(=O)c1ccc(C(=O)NC)nc1-c1nc2cc(C(F)(F)F)nnc2n1C [Example I-39]"
result = 1.96

[[record]]
compound = "CCS(=O)(=O)c1ccc(Cl)nc1-c1nc2cc3c(cc2n1C)OC(F)(F)O3 [XIII-3]"
result = 3.2


====

Collected efficacy values appear next to each entry.
Tested on: Myzus persicae
Assay: Myzus persicae - spray test
Assay type: in vivo
Conditions: application rate 500 g/ha; all stages of green peach aphid on Chinese cabbage leaf discs; after 5-6 days
Value kind: efficacy (%)

[[record]]
compound = "CCS(=O)(=O)c1ccc(N)nc1-c1cn2cnc(C(F)(F)F)cc2n1 [Example I-31]"
uom = "%"
number = 90

[[record]]
compound = "CCS(=O)(=O)c1ccc(NC(C)=O)nc1-c1cn2cnc(C(F)(F)F)cc2n1 [Example I-32]"
uom = "%"
number = 90

[[record]]
compound = "CCS(=O)(=O)c1ccc(NC(=O)C(F)(F)F)nc1-c1nc2cc(C(F)(F)F)cnc2n1C [Example I-15]"
uom = "%"
number = 100

[[record]]
compound = "CCS(=O)(=O)c1ccc(NC(=O)C(F)(F)F)nc1-c1nc2cc(C(F)(F)F)ccc2n1C [Example I-11]"
uom = "%"
number = 90

